target: Zven1 receptor on Wky12-22 cells (rat); assay: saturation binding of I125-radiolabeled Zven1 to Wky12-22 cell monolayers at 4 C, two-site nonlinear regression; high affinity site

binder: Zven1 protein produced in baculovirus with a C-terminal Glu-Glu tag (ligand) AVITGACDKDSQCGGGMCCAVSIWVKSIRICTPMGKLGDSCHPLTRKVPFFGRRMHHTCPCLPGLACLRTSFNRFICLAQKGLEYMPMD
reading-unit: nM
Kd: 1.5
